B1: Far upstream element-binding protein 3, residues 75 to 150; numbered along this chain, Q96I24 (parent)
chain: RTVITEEFKVPDKMVGFIIGRGGEQISRIQAESGCKIQIASESSGIPERPCVLTGTPESIEQAKRLLGQIVDRCRN

Variants of: B1
Experiment: abundance fitness (aPCA) (normalised: wild type 0, dead -1); higher = more abundant; growth selection in yeast, the domain comes from the species named
Details: Homo sapiens
parameter measured: abundance fitness

>>> result_value("Q30G")
-0.171
>>> result_value("I19L")
-0.024
>>> result_value("I29E")
-0.621
>>> result_value("N76F")
0.023
>>> result_value("R28C")
-0.172
>>> result_value("E48T")
-0.109
>>> result_value("R28A")
-0.024
>>> result_value("F17V")
-0.028
>>> result_value("A63G")
-0.065
>>> result_value("G34N")
-0.046
>>> result_value("S44V")
-0.05
>>> result_value("I60K")
-0.767
>>> result_value("K13H")
0.016
>>> result_value("R65A")
-0.031
>>> result_value("Q30K")
-0.171
